# Target Desc: T1, human PCSK9 (proprotein convertase subtilisin kexin type 9) (human, UniProt Q8NBP7 31-692)
# T1 construct: Directly immobilized (SPR ProteOn), biotinylated (BLI), or in solution, depending on the assay; also called hPCSK9
# Experimental Details: FRET, competitor EGFA peptide
# From the text: Table 11 summarizes the overall data from these three FRET assays.
Reported Property: pIC50
Value format note: pIC50 is -log10 of concentration (mol/L); just state the number.

>  <Binder>
2381B02 (designed binder, Anti-PCSK9 Adnectin, His6-tagged) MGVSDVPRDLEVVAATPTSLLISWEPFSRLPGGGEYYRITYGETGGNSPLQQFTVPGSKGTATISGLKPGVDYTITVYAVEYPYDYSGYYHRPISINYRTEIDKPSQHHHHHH

>  <pIC50>
8.60

$$$$

State the recorded pIC50 for this entry: 1813E02 (designed binder, Anti-PCSK9 Adnectin, His6-tagged) MGVSDVPRDLEVVAATPTSLLISWSPPANGYGYYRITYGETGGNSPVQEFTVPVGRGTATISGLKPGVDYTITVYAVEYTYKGSGYYHRPISINYRTEIDKPSQHHHHHH
8.89

Consider the binder shown here: 2382E03 (designed binder, Anti-PCSK9 Adnectin, His6-tagged) MGVSDVPRDLEVVAATPTSLLISWDAPAGDGYGYYRITYGETGGNSPVQEFTVPVSKGTATISGLKPGVDYTITVYAVEFDFPGAGYYHRPISINYRTEIDKPSQHHHHHH What is its recorded pIC50?
8.62

Bench note: what pIC50 did 2382D03 (designed binder, Anti-PCSK9 Adnectin, His6-tagged) MGVSDVPRDLEVVAATPTSLLISWDAPADEAYGYYRITYGETGGNSPVQEFTVPVSKGTATISGLKPGVDYTITVYAVEFDFPGAGYYHRPISINYRTEIDKPSQHHHHHH show?
8.48

From: patent US20120094909A1
